Entries and their measured viability follow.
ASSAY_REMARKS: reversal of MRP1-mediated doxorubicin resistance, pilot screen, H69AR cells, doxorubicin co-treatment (AID 601)
DETAILS: H69AR cells, CellTiter-Glo, 72 h; compound alone cytotoxicity; at 10 µM
REPORTED_METRIC: viability (%)

> print(dat)
                                    molecule  test.result
 1         CC(=O)NC1=NC(=O)/C(=C/N2CCCCC2)S1         95.9
 2            CCCCOc1ccc(C(=O)CCN2CCCCC2)cc1         66.1
 3  Cc1c(NS(=O)(=O)c2ccc3c(c2)n(C)c(=O)n3C)c(=O)n(-c2ccccc2)n1C         94.2
 4  CCOC(=O)C1(C(=O)OCC)C(c2ccccc2)CC(O)N1C(C)=O (stereo not drawn)         86.2
 5      COC(=O)c1ccccc1NC(=O)Nc1cc(C)cc(C)n1          102
 6  O=C(C1CCCN(S(=O)(=O)c2cccc3nonc23)C1)N1CCC(Cc2ccccc2)CC1 (stereo not drawn)         71.3
 7       O=C(Nc1sccc1C(=O)NCc1ccco1)c1cccnc1         79.6
 8  CC(C)C(=O)N1CCN(c2nc(-c3ccccc3)c3c(c2C#N)CCCC3)CC1         89.2
 9  N#CC1=C(N)OC2=C(CCC/C2=C/c2ccoc2)C1c1ccoc1 (stereo not drawn)         80.8
10  CC(C)OC(=O)CSc1nnc(-c2cccnc2)n1Cc1ccccc1         89.9
11     O=C1c2ccccc2-c2ccc(C(=O)N3CCOCC3)cc21         89.7
12         COC(=O)CSc1nnc(-c2ccc(OC)cc2OC)o1          109
13    Cc1cc(NC(=O)c2ccccc2)ncc1NC(=O)c1ccco1          109
14  Cn1nnnc1SCC1=C(C(=O)O)N2C(=O)[C@@H](NC(=O)[C@H](O)c3ccccc3)[C@H]2SC1         99.2
15        COc1cc(C)c(Br)cc1S(=O)(=O)N1CCOCC1          100
16  O=c1c2ccccc2[nH]c(=S)n1CCN1CCC(=C(c2ccc(F)cc2)c2ccc(F)cc2)CC1         78.8
17        COc1cccc(OCCSc2nnc3sc4ccccc4n23)c1         85.3
18  CNC(=O)CSc1nc2c(c(=O)n(C)c(=O)n2C)n1Cc1ccc(C)cc1         96.2

====

ASSAY_REMARKS: reversal of MRP1-mediated doxorubicin resistance, pilot screen, H69AR cells, doxorubicin co-treatment (AID 601)
DETAILS: H69AR cells + 2 uM doxorubicin, CellTiter-Glo, 72 h; measured here: viability with 2 uM doxorubicin; at 10 µM; stronger effect = lower value
REPORTED_METRIC: viability (%)

> print(dat)
                                    molecule  reported.metric  test.result
 1                 Cc1nnc(SCC(=O)Nc2nccs2)s1        viability         91.3
 2  CCCCNc1cc(C(=O)O)cc(S(N)(=O)=O)c1Oc1ccccc1        viability         90.5
 3  Cc1n[nH]c(C)c1S(=O)(=O)Nc1ccc2c(c1)OCCO2        viability         89.3
 4  CC(CCc1ccccc1)NC(=O)CSc1nc(N)cc(N)n1 (configuration not stated)        viability           90
 5            O=C(O)c1cccn2c(=O)c3ccccc3nc12        viability         91.4
 6            COC(=O)CCn1nnc(-c2ccc(C)cc2)n1        viability         90.4
 7  Cc1c(NC(=O)CCc2ccc(S(=O)(=O)N3CCOCC3)cc2)c(=O)n(-c2ccccc2)n1C        viability         89.8
 8  C=CCn1c(SCC(=O)Nc2cccc(OC)c2)nnc1-c1cccnc1        viability         87.5
 9  COc1ccc(S(=O)(=O)N2CCN(Cc3ccc(Cl)cc3)CC2)cc1        viability         90.3
10                Cc1cc(Nc2ccccc2F)n2ncnc2n1        viability         88.3
11  CCOC(=O)NC(c1ccccc1)C1CCCCC1=O (configuration not stated)        viability         88.3
12  Cc1ccccc1NS(=O)(=O)c1ccc(NC(=O)c2ccco2)cc1        viability         89.7

====

ASSAY_REMARKS: 384-well plate pilot, post-Golgi transport modulator project, inhibition of yeast transport mutant growth (AID 636)
DETAILS: absorbance 615 nm, about 18 h, stronger effect = higher value
Activity calls are given as the source filed them. No stated cut-off is given here; in the data, active means inhibition above about 31%; inactive means the rest.
Entries and their measured inhibition follow.
REPORTED_METRIC: inhibition

> print(dat)
                                   compound        test.result
1  COc1ccc(N2C(=O)C(Cl)=C(Nc3c(C)n(C)n(-c4ccccc4)c3=O)C2=O)cc1  -1.71% (inactive)
2  Cc1ccc2c(c1)c1c3n2CC(=C2C(=O)OC(C)(C)OC2=O)NC3CCC1 (centres undefined)  -4.67% (inactive)
3  COC(=O)C1=C(C)NC(C)=C(C(=O)OC)C1c1ccccc1[N+](=O)[O-]   1.04% (inactive)
4  CC(CCc1ccccc1)NC(=O)c1ccc(Br)o1 (centres undefined)  -4.93% (inactive)
5  CN(C)c1nc(OCCOC(=O)Nc2ccc(Cl)cc2Cl)nc(N(C)C)n1  -5.21% (inactive)
6  CCOC(=O)C1CCN(C(=O)Nc2ccc3nc(C)c(C)nc3c2)CC1  -3.87% (inactive)
7           O=C(O)c1cc(-c2ccccc2)nc2ccccc12   2.99% (inactive)
8  O=C(NC1CCCCC1)N(Cc1ccc(F)cc1)Cc1nc2ccccc2c(=O)[nH]1  -5.66% (inactive)
9  Cc1nc2sc(C(c3cccc(F)c3)N3CCN(C(=O)c4ccco4)CC3)c(O)n2n1 (centres undefined)     -5% (inactive)

====

ASSAY_REMARKS: reversal of MRP1-mediated doxorubicin resistance, pilot screen, H69AR cells, doxorubicin co-treatment (AID 601)
DETAILS: H69AR cells, CellTiter-Glo, 72 h; compound alone cytotoxicity; at 10 µM
# if measured viability < 80%: TRUE  # else: FALSE

> print(dat)
                                    molecule    cat
 1  OC(CCCN1CCC(O)(c2ccc(Cl)cc2)CC1)c1ccc(F)cc1 (stereo not given)   TRUE
 2  Cc1c(C(=O)NCc2ccoc2)oc2ccc3c(c12)C(=O)CC(C)(C)O3   TRUE
 3         CN(C)c1ccc(C=Nc2ccc(N(C)C)cc2)cc1   TRUE
 4  Cc1ccc2[nH]c3c(c2c1)CN(C(=O)CN1CCN(c2cccc(C)c2C)CC1)CC3   TRUE
 5  CCOc1ccccc1NC(=O)CCSc1nc2n[nH]c(C)c2c(=N)n1-c1ccccc1Cl   TRUE
 6      CC1(C)CC(=O)CC(C)(C)N1OC(=O)c1ccccn1  FALSE
 7  COc1ccc(NC(=O)CCNC(=O)Cn2ccc3ccccc3c2=O)c(OC)c1  FALSE
 8  Cc1ccc(N(Cc2ccco2)C(=O)c2cccc(S(=O)(=O)N(C)C)c2)cc1  FALSE
 9          CSc1nc(N2CCOCC2)c2c(c1C#N)CCCCC2  FALSE
10   Nc1c(N2CCCCC2)c(=O)[nH]c(=O)n1-c1ccccc1  FALSE
11  Cc1ccc(-c2nnc(SCC(=O)N3c4ccccc4NC(=O)C3(C)C)n2N)cc1  FALSE
12      COc1cccc(-c2nnc(NC(=O)Cc3cccs3)s2)c1  FALSE

====

ASSAY_REMARKS: 384-well plate pilot, post-Golgi transport modulator project, inhibition of yeast transport mutant growth (AID 636)
DETAILS: absorbance 615 nm, about 18 h, stronger effect = higher value
Calls of active or inactive are those of the source. No stated cut-off is given here; in the data, active means inhibition above about 31%; inactive means the rest.
REPORTED_METRIC: inhibition

> print(dat)
                                   compound        test.result
1  CCC1CCc2c(sc3ncnc(N4CCOCC4)c23)C1 (centres undefined)  -5.14% (inactive)
2   COC(=O)CSc1nnc(-c2cccs2)n1-c1ccc(Cl)cc1  -8.49% (inactive)
3       CCN(C(=O)c1cccs1)c1nnc(-c2ccncc2)s1  -3.33% (inactive)
4  CCOC(=O)N1CCC(n2c(SCC(=O)NCc3ccco3)nc3ccsc3c2=O)CC1  -3.55% (inactive)

====

ASSAY_REMARKS: 384-well plate pilot, post-Golgi transport modulator project, inhibition of yeast transport mutant growth (AID 636)
DETAILS: absorbance 615 nm, about 18 h, stronger effect = higher value
Calls of active or inactive are those of the source. Rule as the data show it: active = inhibition above about 31%; inactive = the rest.
REPORTED_METRIC: inhibition

> print(dat)
                                    compound  reported.metric        test.result
 1  COC(=O)C1CCN(C(=O)CN2C(=O)NC(CCc3ccccc3)C2=O)CC1 (stereo not given)       inhibition  -1.92% (inactive)
 2  O=C1CC(c2ccsc2)c2cc3c(cc2N1)OCCO3 (stereo not given)       inhibition  -2.93% (inactive)
 3         CCc1ccc(CCC(=O)Nc2ccc(C)c(C)c2)o1       inhibition   -8.4% (inactive)
 4                      FC(F)Oc1cccc2cccnc12       inhibition  -3.33% (inactive)
 5           O=C(CSc1nc2ccccc2[nH]1)N1CCCCC1       inhibition  -6.44% (inactive)
 6  COc1ccc(Cn2nnnc2C(c2ccccn2)N2CCN(c3cc(Cl)ccc3C)CC2)cc1 (stereo not given)       inhibition  -2.43% (inactive)
 7  CC(C)n1c(=NC(=O)c2ccco2)c(C#N)cc2c(=O)n3ccccc3cc21       inhibition   3.16% (inactive)
 8       COC(=O)Nc1nc2ccc(Sc3ccccc3)cc2[nH]1       inhibition   3.25% (inactive)
 9      O=C(CCNS(=O)(=O)c1ccc(Br)s1)N1CCCCC1       inhibition  -6.03% (inactive)
10                CC(=O)Nc1nnc(S(N)(=O)=O)s1       inhibition  -1.82% (inactive)
